# Tested on: Escherichia coli TOP10
# assay_notes: shrunken log2 fold change of peptide-encoding DNA abundance (4.5 h post-induction vs induction); higher = less antimicrobial activity (less host growth inhibition)
# condition_parameters: time post-induction: 4.5 h; library: site-saturation at positions 5, 18, 19, 20
Please use 1 whenever shrunken log2 fold change is not below -0.2, and 0 whenever it is.

{"polymer_sequence": "RRIRRRPPRLPRPRPRPNWHPRP", "assay_target": "Escherichia coli TOP10", "class": 1}
{"polymer_sequence": "RRIRVRPPRLPRPRPRPSEGPRP", "assay_target": "Escherichia coli TOP10", "class": 1}
{"polymer_sequence": "RRIRPRPPRLPRPRPRPNVGPRP", "assay_target": "Escherichia coli TOP10", "class": 1}
{"polymer_sequence": "RRIRRRPPRLPRPRPRPERRPRP", "assay_target": "Escherichia coli TOP10", "class": 1}
{"polymer_sequence": "RRIRKRPPRLPRPRPRPSNVPRP", "assay_target": "Escherichia coli TOP10", "class": 0}
{"polymer_sequence": "RRIRNRPPRLPRPRPRPLIVPRP", "assay_target": "Escherichia coli TOP10", "class": 0}
{"polymer_sequence": "RRIRIRPPRLPRPRPRPNPEPRP", "assay_target": "Escherichia coli TOP10", "class": 1}
{"polymer_sequence": "RRIRERPPRLPRPRPRPHFFPRP", "assay_target": "Escherichia coli TOP10", "class": 1}
{"polymer_sequence": "RRIRYRPPRLPRPRPRPLCCPRP", "assay_target": "Escherichia coli TOP10", "class": 0}
{"polymer_sequence": "RRIRQRPPRLPRPRPRPKYHPRP", "assay_target": "Escherichia coli TOP10", "class": 1}

Ask: Kindly determine if shrunken log2 fold change recorded for `RRIRERPPRLPRPRPRPGWPPRP` is above or exactly -0.2.
Result: 1

Ask: Determine whether measured shrunken log2 fold change meets or exceeds -0.2 for `RRIRDRPPRLPRPRPRPVASPRP`
Result: 1

Ask: Dear colleague, could you confirm whether `RRIRERPPRLPRPRPRPNYFPRP` has shrunken log2 fold change at or above -0.2?
Result: 0

Ask: Determine whether measured shrunken log2 fold change meets or exceeds -0.2 for `RRIRKRPPRLPRPRPRPLQEPRP`
Result: 1

###

# System: Escherichia coli TOP10
# assay_notes: shrunken log2 fold change of peptide-encoding DNA abundance (4.5 h post-induction vs induction); higher = less antimicrobial activity (less host growth inhibition)
# condition_parameters: time post-induction: 4.5 h; library: site-saturation at positions 5, 18, 19, 20
Values of shrunken log2 fold change greater than or equal to 0.05 map to 1 (yes); values below map to 0 (no).

Ask: Hello, I need to know if `RRIRNRPPRLPRPRPRPCWVPRP` has measured shrunken log2 fold change not below 0.05. Thanks!
Result: 0 (no)

###

# Tested on: Escherichia coli TOP10
# assay_notes: shrunken log2 fold change of peptide-encoding DNA abundance (4.5 h post-induction vs induction); higher = less antimicrobial activity (less host growth inhibition)
# condition_parameters: time post-induction: 4.5 h; library: site-saturation at positions 5, 18, 19, 20
measured_quantity: shrunken log2 fold change
// return a plain number; no unit text

{"polymer_sequence": "RRIRMRPPRLPRPRPRPLMTPRP", "measured_quantity": "shrunken log2 fold change", "measurement": 1.3}
{"polymer_sequence": "RRIRARPPRLPRPRPRPAIWPRP", "measured_quantity": "shrunken log2 fold change", "measurement": 0.709}
{"polymer_sequence": "RRIRPRPPRLPRPRPRPWVRPRP", "measured_quantity": "shrunken log2 fold change", "measurement": 0.113}
{"polymer_sequence": "RRIRARPPRLPRPRPRPDSCPRP", "measured_quantity": "shrunken log2 fold change", "measurement": 0.156}
{"polymer_sequence": "RRIRERPPRLPRPRPRPADCPRP", "measured_quantity": "shrunken log2 fold change", "measurement": 0.0519}
{"polymer_sequence": "RRIRHRPPRLPRPRPRPKPDPRP", "measured_quantity": "shrunken log2 fold change", "measurement": 0.0401}
{"polymer_sequence": "RRIRMRPPRLPRPRPRPHAFPRP", "measured_quantity": "shrunken log2 fold change", "measurement": 0.179}
{"polymer_sequence": "RRIRSRPPRLPRPRPRPKMMPRP", "measured_quantity": "shrunken log2 fold change", "measurement": -0.214}
{"polymer_sequence": "RRIRQRPPRLPRPRPRPAIKPRP", "measured_quantity": "shrunken log2 fold change", "measurement": -0.316}
{"polymer_sequence": "RRIRCRPPRLPRPRPRPMTPPRP", "measured_quantity": "shrunken log2 fold change", "measurement": 0.377}

Ask: Request the reported shrunken log2 fold change associated with `RRIRYRPPRLPRPRPRPMQCPRP`
Result: -0.00134

Ask: Need shrunken log2 fold change of `RRIRVRPPRLPRPRPRPIYPPRP` , thanks.
Result: -0.413

Ask: Which shrunken log2 fold change is listed for `RRIRLRPPRLPRPRPRPVYGPRP` ?
Result: -0.183

Ask: Please give the measured shrunken log2 fold change for this sequence: `RRIRHRPPRLPRPRPRPSMAPRP`
Result: 0.231

Ask: State the recorded shrunken log2 fold change for this entry: `RRIRRRPPRLPRPRPRPKWSPRP`
Result: 0.457

###

# Lookup of reported shrunken log2 fold change keyed by entry
# Test system: Escherichia coli TOP10
# assay_notes: shrunken log2 fold change of peptide-encoding DNA abundance (4.5 h post-induction vs induction); higher = less antimicrobial activity (less host growth inhibition)
# condition_parameters: time post-induction: 4.5 h; library: site-saturation at positions 5, 18, 19, 20
Give a plain numeric answer without units written out.

{"polymer_sequence": "RRIRGRPPRLPRPRPRPSLYPRP", "assay_target": "Escherichia coli TOP10", "shrunken log2 fold change": 0.189}

Ask: Please look up its shrunken log2 fold change: `RRIRTRPPRLPRPRPRPAAEPRP`
Result: 0.351

Ask: Record request: shrunken log2 fold change value, item `RRIRLRPPRLPRPRPRPKLQPRP`
Result: 0.356

Ask: Fill blank: measured shrunken log2 fold change of the sequence `RRIRSRPPRLPRPRPRPYDNPRP` is ____.
Result: -0.0962

Ask: Param item = `RRIRIRPPRLPRPRPRPHMSPRP` ; retrieve measured shrunken log2 fold change.
Result: -0.109

Ask: Value lookup for shrunken log2 fold change; key = `RRIRWRPPRLPRPRPRPMHKPRP`
Result: 0.219

Ask: I have this sequence here, `RRIRHRPPRLPRPRPRPWMHPRP` , and I need its recorded shrunken log2 fold change.
Result: 0.0155

Ask: Sample `RRIRGRPPRLPRPRPRPFPLPRP` — what was its shrunken log2 fold change?
Result: 0.227

###

# Tested on: Escherichia coli TOP10
# assay_notes: shrunken log2 fold change of peptide-encoding DNA abundance (4.5 h post-induction vs induction); higher = less antimicrobial activity (less host growth inhibition)
# condition_parameters: time post-induction: 4.5 h; library: site-saturation at positions 5, 18, 19, 20
measured_quantity: shrunken log2 fold change
// no unit string in output, number only

Reference set, count: 7
{"polymer_sequence": "RRIRGRPPRLPRPRPRPEDSPRP", "shrunken log2 fold change": 1.39}
{"polymer_sequence": "RRIRERPPRLPRPRPRPFGCPRP", "shrunken log2 fold change": -0.0136}
{"polymer_sequence": "RRIRVRPPRLPRPRPRPMTEPRP", "shrunken log2 fold change": 0.0198}
{"polymer_sequence": "RRIRRRPPRLPRPRPRPDHCPRP", "shrunken log2 fold change": -0.0402}
{"polymer_sequence": "RRIRVRPPRLPRPRPRPFHSPRP", "shrunken log2 fold change": 0.0749}
{"polymer_sequence": "RRIRMRPPRLPRPRPRPVDAPRP", "shrunken log2 fold change": 1.17}
{"polymer_sequence": "RRIRQRPPRLPRPRPRPCWLPRP", "shrunken log2 fold change": 0.0947}

# next sequence below
Ask: What value of measured shrunken log2 fold change is listed for `RRIRDRPPRLPRPRPRPAVAPRP` ?
Result: 0.309

###

Below: a set of entries, each annotated with reported shrunken log2 fold change.
# Test system: Escherichia coli TOP10
# assay_notes: shrunken log2 fold change of peptide-encoding DNA abundance (4.5 h post-induction vs induction); higher = less antimicrobial activity (less host growth inhibition)
# condition_parameters: time post-induction: 4.5 h; library: site-saturation at positions 5, 18, 19, 20
// no unit string in output, number only

Ask: Entry `RRIRDRPPRLPRPRPRPAEHPRP` , system Escherichia coli TOP10: what shrunken log2 fold change was measured?
Result: -0.0618

Ask: Provide value of shrunken log2 fold change for this record tested with Escherichia coli TOP10: `RRIRRRPPRLPRPRPRPNFEPRP`
Result: 0.413

Ask: Please state recorded shrunken log2 fold change (tested on Escherichia coli TOP10) of `RRIRSRPPRLPRPRPRPSCKPRP`
Result: -0.797

Ask: Notebook: pull reported shrunken log2 fold change for Escherichia coli TOP10, entry `RRIRARPPRLPRPRPRPECIPRP`
Result: 0.781

Ask: Checklist item: shrunken log2 fold change tested on Escherichia coli TOP10, entry `RRIRHRPPRLPRPRPRPEAWPRP` , value?;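 further: peptides expressed intracellularly from a pBAD plasmid library in pooled LB shake-flask culture, induced with 0.3% L-arabinose, DNA abundance read by NGS, three biological replicates, DESeq2 with apeglm shrinkage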
Result: 0.0548

Ask: What reported shrunken log2 fold change corresponds to `RRIRNRPPRLPRPRPRPNCPPRP` on Escherichia coli TOP10?
Result: -0.361

Ask: Provide value of shrunken log2 fold change for this record tested with Escherichia coli TOP10: `RRIRHRPPRLPRPRPRPPHCPRP`
Result: -0.203

Ask: Form field: shrunken log2 fold change recorded for `RRIRRRPPRLPRPRPRPIAEPRP` with Escherichia coli TOP10 (enter value)
Result: 0.446

Provenance of the data: the supplement of paper PMC9112550
